Reported furin cleavage Z-score values for the following sequences.
# EXPERIMENTAL_TARGET: furin, P09958;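 note: purified furin at 1:10 enzyme:substrate in 50 mM HEPES pH 7.5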
# Sequence (P09958 whole entry): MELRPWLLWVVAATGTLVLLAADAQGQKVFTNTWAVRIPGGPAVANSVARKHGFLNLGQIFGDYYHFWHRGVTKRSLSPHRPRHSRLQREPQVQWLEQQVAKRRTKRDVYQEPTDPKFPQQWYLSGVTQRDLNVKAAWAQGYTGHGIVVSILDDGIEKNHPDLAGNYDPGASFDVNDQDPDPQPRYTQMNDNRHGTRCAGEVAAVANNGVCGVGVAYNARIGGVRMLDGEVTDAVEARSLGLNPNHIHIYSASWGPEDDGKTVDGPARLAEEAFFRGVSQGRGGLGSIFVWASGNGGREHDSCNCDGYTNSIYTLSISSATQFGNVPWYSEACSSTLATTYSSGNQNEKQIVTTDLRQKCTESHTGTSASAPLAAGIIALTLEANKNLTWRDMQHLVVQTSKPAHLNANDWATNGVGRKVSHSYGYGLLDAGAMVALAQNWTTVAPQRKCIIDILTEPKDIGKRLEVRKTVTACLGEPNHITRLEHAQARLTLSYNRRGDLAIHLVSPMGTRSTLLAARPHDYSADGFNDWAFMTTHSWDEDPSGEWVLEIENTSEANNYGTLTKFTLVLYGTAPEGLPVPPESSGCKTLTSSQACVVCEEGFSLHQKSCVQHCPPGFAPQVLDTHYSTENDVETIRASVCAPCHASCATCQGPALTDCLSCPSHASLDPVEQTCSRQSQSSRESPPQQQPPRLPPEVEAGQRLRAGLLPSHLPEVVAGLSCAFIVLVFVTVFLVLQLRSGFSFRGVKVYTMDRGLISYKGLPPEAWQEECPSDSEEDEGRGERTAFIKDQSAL
# METHOD_NOTES: furin cleavage Z-score vs untreated control; higher = more cleavage, active = 3.5 or more, inactive = 1 or less, 8 variable residues between constant flanks
# CONDITION_SUMMARY: 30 min
The other results are listed elsewhere or left out. The hit rate among all sequences tested is not known here.
MEASURED_PROPERTY: furin cleavage Z-score

{"columns": ["PRIMARY_SEQUENCE", "EXPERIMENTAL_RESULT"],
 "data": [
  ["CANRKRSKRRAGNASASA [FS-1240]", 8.12],
  ["CAWDWICEVLAGNASASA [HC1151]", 1.97],
  ["CANRKRNKKQAGNASASA [FS-1239]", 2.02],
  ["CASEPAPSGCAGNASASA [HC1345]", -1.95],
  ["CASGPCSAHLAGNASASA [HC2496]", 0.168],
  ["CARMDRVKKEAGNASASA [FS-953]", 3.22],
  ["CALPDRRRRFAGNASASA [FS-1027]", 8.99],
  ["CARDKRKLGAAGNASASA [FS-1691]", 1.45],
  ["CAGKGRKYREAGNASASA [FS-125]", 7.89],
  ["CARSRRPADTAGNASASA [FS-3210]", -2.54],
  ["CARPRRMKREAGNASASA [FS-710]", 8.41],
  ["CALVAFKIMSAGNASASA [HC1092]", -0.368],
  ["CARSKRGTEDAGNASASA [FS-3084]", 8.39],
  ["CASSSRDPRAAGNASASA [FS-1573]", 1.07],
  ["CARSRREASGAGNASASA [FS-2311]", 2.33],
  ["CASRKRSFFRAGNASASA [FS-3137]", 0.35],
  ["CAGDGRSYRGAGNASASA [FS-529]", -0.179],
  ["CATTPCSISWAGNASASA [HC1884]", 0.615],
  ["CARARRDPRAAGNASASA [FS-2643]", 9.18],
  ["CAACNWTRGEAGNASASA [HC482]", -0.647],
  ["CARDKRKQRQAGNASASA [FS-2205]", 3.43],
  ["CAKPAKSARSAGNASASA [FS-811]", 0.253],
  ["CARSKRALENAGNASASA [FS-2523]", 8.18],
  ["CAVVCCSMSDAGNASASA [HC2091]", -0.759],
  ["CAFRSRSKRRAGNASASA [FS-773]", 7.71],
  ["CARSKRRDANAGNASASA [FS-2306]", 2.07],
  ["CARGSLLSPRAGNASASA [HC735]", -0.591],
  ["CAPLLREEVSAGNASASA [HC1230]", -1.63],
  ["CARSKRVLWDAGNASASA [FS-2525]", -0.22],
  ["CARPRRTKKTAGNASASA [DV3]", 1.15]
]}
